These entries and their values trace back to the supplement of paper PMC10981050.

System: MOLM14;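 further: after 48 h exposure read by CellTiter-Glo luminescence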
Method description: cell viability relative to vehicle control; higher = less cytotoxic
Test settings: 10 µM; SRSF2 genotype: SRSF2 P95H/wt
Where a name gives a salt, the structure may show the parent alone.
Provide the recorded cell viability for the entries that follow.
Numbers only, in %.

Consider the following illustrative entries.
The reported cell viability value, MOLM14, for `CS(=O)(=O)OCCCCOS(C)(=O)=O` reads 102

Noted cell viability for `C[C@H]1O[C@@H](O[C@H]2CC[C@@]3(C)[C@@H](CC[C@]4(C)[C@@H]3C=C[C@]35OC[C@@]6(CCC(C)(C)C[C@H]63)[C@H](O)C[C@]54C)[C@]2(C)CO)[C@H](O)[C@@H](O[C@@H]2O[C@H](CO)[C@@H](O)[C@H](O)[C@H]2O)[C@H]1O` , tested on MOLM14: 0.86

The reported MOLM14 cell viability of `c1ccc(-c2nn3c(c2-c2ccnc4cc(OCCN5CCOCC5)ccc24)CCC3)nc1` is 105

Observed cell viability, MOLM14, COc1cc2c(cc1OC)[C@H]1C[C@@H](OC(=O)[C@@H](N)C(C)C)[C@H](CC(C)C)CN1CC2 [Valbenazine tosylate] : 103

Value (cell viability, MOLM14) for record `Cc1ccc2nc(CN(CCN(Cc3nc4ccc(C)cc4[nH]3)Cc3nc4ccc(C)cc4[nH]3)Cc3nc4ccc(C)cc4[nH]3)[nH]c2c1` = 0.58

I need cell viability for every entry listed below, if you could help.
1. CCC[C@@H]1C[C@@H](C(=O)N[C@@H]([C@H]2O[C@H](SC)[C@H](O)[C@@H](O)[C@H]2O)[C@H](C)Cl)N(C)C1 [Clindamycin HCl]
2. CCOc1cc(CC(=O)N[C@@H](CC(C)C)c2ccccc2N2CCCCC2)ccc1C(=O)O [Repaglinide]
3. CC(C)(C)C1CCC(CC2=C(O)c3ccccc3C(=O)C2=O)CC1 (stereo unspecified)
4. C=CC(=O)Nc1cccc(C)c1Nc1ncc2cc(-c3c(Cl)c(OC)cc(OC)c3Cl)ccc2n1
5. c1cn2cc(-c3ccc4cn[nH]c4c3)nc(Nc3ccc(N4CCOCC4)cc3)c2n1
6. C[Si](C)(C)CCOCn1ccc2c(-c3cn[nH]c3)ncnc21

Response:
1. 96.5
2. 102
3. 63.2
4. 6.84
5. 79
6. 95.9

Each molecule below has a reported value. Please supply its cell viability.
1. CCCCCCCCCC=O
2. COc1cccc(Nc2c(C(N)=O)cnc3c(C)cc(S(=O)(=O)c4cccc(C(=O)N(C)C)c4)cc23)c1
3. NC(=O)c1ccc(-c2nc(-c3ccc4c(c3)OCCO4)c(-c3ccccn3)[nH]2)cc1
4. C[C@@H](CN1CC(=O)NC(=O)C1)N1CC(=O)NC(=O)C1 [Dexrazoxane]
5. CS(=O)(=O)n1cc2c(n1)CN([C@H]1CO[C@H](c3cc(F)ccc3F)[C@@H](N)C1)C2
6. O=c1nc(N2CCOCC2)oc2c(-c3cccc4c3sc3ccccc34)cccc12

Response:
102
108
97.5
89.8
101
82.6

List the reported cell viability of each molecule below.
1. N=C1CCCN1Cc1[nH]c(=O)[nH]c(=O)c1Cl [Tipiracil hydrochloride]
2. CC(C)OC(=O)C1=CN(C(=O)c2ccc(F)c(F)c2)CC(C)(C)c2c1[nH]c1ccccc21 [Turofexorate Isopropyl (XL335)]
3. CC(C)C(=O)Oc1ccc(CO)cc1[C@H](CCN(C(C)C)C(C)C)c1ccccc1 [Fesoterodine Fumarate]
4. CO[C@@]12[C@H](COC(N)=O)C3=C(C(=O)C(C)=C(N)C3=O)N1C[C@@H]1N[C@@H]12

Response:
1. 110
2. 97
3. 102
4. 0.73

List cell viability for every entry below, keeping the order given.
1. C[C@]12CC[C@@H]3c4ccc(O)cc4C[C@@H](CCCCCCCCC[S+]([O-])CCCC(F)(F)C(F)(F)F)[C@H]3[C@@H]1CC[C@@H]2O (stereo partly specified)
2. O=C1c2c(O)ccc(O)c2C(=O)c2c(NCCNCCO)ccc(NCCNCCO)c21 [Mitoxantrone 2HCl]
3. O=C(O)CCCc1c[nH]c2ccccc12
4. COc1c(C)c(C(=O)c2ccc(N)c(C(=O)O)c2)n2ccccc12
5. COc1ccc2[nH]cc(/C=C3\C(=O)Nc4ccc(NC(=O)CCN5CCCCC5)cc43)c2c1
6. CCn1c(C(=O)N(C2CC2)C2CC2)cc2c3c(ncn3C)c(Nc3cc(C)n(C)n3)nc21

Response:
93.1
0.19
93.2
105
0.75
41.6

Report cell viability for every entry below.
1. C=C1CC[C@@H]2[C@](C)(CO)[C@H](O)CC[C@@]2(C)[C@@H]1C/C=C1/C(=O)OC[C@H]1O [Andrographolide]
2. CC/C(=C(\c1ccccc1)c1ccc(OCCN(C)C)cc1)c1ccccc1 [Tamoxifen Citrate (Nolvadex)]
3. NC(=O)c1cnc(NCCc2ccc(O)c(Cl)c2)nc1NCc1ccccc1
4. CCc1c(O)cc(O)c(C(=O)c2ccc(OCCN3CCOCC3)c(OC)c2)c1CC(=O)N(CCOC)CCOC

Response:
1. 11.1
2. 74.5
3. 5.95
4. 2.57
